The values you see were collected from BindingDB's records for doi:10.1016/j.bmcl.2021.128353.

assay: Modulation of capsid assembly in HBV infected in human HepG2.2.15 cells assessed as inhibition of viral DNA replication preincubated for 3 days followed by replacement with fresh medium containing compound and measured after 3 days by QuantiGene assay
Observable: pEC50
One number for each entry, as −log10 of the molar value.

Example results:
>  <Compound>
C[C@@H]1Cc2nn3c(c2CN1C(=O)Nc1ccc(F)c(C#N)c1)C(=O)N(C)O[C@@H](COCC(F)F)C3

>  <Observable>
pEC50

>  <Value Reported>
8.30

$$$$
>  <Compound>
C[C@H]1Cc2nn3c(c2CN1C(=O)Nc1ccc(F)c(Cl)c1)C(=O)N(C)O[C@@H](CO)C3

>  <Observable>
pEC50

>  <Value Reported>
7.27

$$$$
>  <Compound>
CON(C)C(=O)c1n[nH]c2c1CN(C(=O)Nc1cccc(Cl)c1)[C@@H](C)C2

>  <Observable>
pEC50

>  <Value Reported>
7.51

$$$$
>  <Compound>
CCOC(=O)c1n[nH]c2c1CN(C(=O)Nc1cccc(Cl)c1)CC2

>  <Observable>
pEC50

>  <Value Reported>
6.59

$$$$
>  <Compound>
CCCC(=O)c1n[nH]c2c1CN(C(=O)Nc1cccc(Cl)c1)CC2

>  <Observable>
pEC50

>  <Value Reported>
7.17

$$$$

Value sought for every listed compound: pEC50.
1. CN(OC1CCOC1)C(=O)c1n[nH]c2c1CN(C(=O)Nc1cccc(Cl)c1)CC2 (centres undefined)
2. CN1O[C@H](CO)Cn2nc3c(c2C1=O)CN(C(=O)Nc1ccc(F)c(Cl)c1)CC3
3. C[C@@H]1Cc2nn3c(c2CN1C(=O)Nc1ccc(F)c(Cl)c1)C(=O)N(C)O[C@@H](CO)C3
4. CN1CC(ON(C)C(=O)c2n[nH]c3c2CN(C(=O)Nc2cccc(Cl)c2)CC3)C1
5. O=C(Nc1cccc(Cl)c1)N1CCc2[nH]nc(C(=O)N3CCCO3)c2C1

**A:**
1: 6.52; 2: 7.82; 3: 8.40; 4: 6.70; 5: 6.92

---

assay: Modulation of capsid assembly in HBV infected in human HepG2.2.15 cells assessed as inhibition of viral DNA replication preincubated for 3 days followed by replacement with fresh medium containing compound and measured after 3 days by QuantiGene assay
Observable: EC50 (nM)
One number for each entry, in nM.

Value sought for every listed compound: EC50.
1. C[C@@H]1Cc2nn3c(c2CN1C(=O)Nc1ccc(F)c(C#N)c1)C(=O)N(C)O[C@@H](C(=O)N(C)CC(F)F)C3
2. CCN(C)C(=O)c1n[nH]c2c1CN(C(=O)Nc1cccc(Cl)c1)CC2
3. CN(OC1CCCOC1)C(=O)c1n[nH]c2c1CN(C(=O)Nc1cccc(Cl)c1)CC2 (centres undefined)
4. C[C@@H]1Cc2nn3c(c2CN1C(=O)Nc1ccc(F)c(C#N)c1)C(=O)N(C)O[C@@H](CO)C3
5. CC(C)ON(C)C(=O)c1n[nH]c2c1CN(C(=O)Nc1cccc(Cl)c1)CC2
6. C[C@@H]1Cc2nn3c(c2CN1C(=O)Nc1ccc(F)c(C#N)c1)C(=O)N(C)OCC3

**A:**
[5.3, 410, 370, 7.3, 57, 5.3]

Value sought for every listed compound: EC50.
1. CN(OC1COC1)C(=O)c1n[nH]c2c1CN(C(=O)Nc1cccc(Cl)c1)CC2
2. Cc1cc(NC(=O)N2Cc3c(nn4c3C(=O)N(C)O[C@@H](CO)C4)C[C@H]2C)ccc1F
3. CCCON(C)C(=O)c1n[nH]c2c1CN(C(=O)Nc1cccc(Cl)c1)CC2
4. C[C@H]1Cc2nn3c(c2CN1C(=O)Nc1ccc(F)c(Cl)c1)C(=O)N(C)O[C@H](CO)C3
5. CONC(=O)c1n[nH]c2c1CN(C(=O)Nc1cccc(Cl)c1)CC2
6. CCON(C)C(=O)c1n[nH]c2c1CN(C(=O)Nc1cccc(Cl)c1)CC2

**A:**
1. 24
2. 3.4
3. 210
4. 216
5. 400
6. 63

Value sought for every listed compound: EC50.
1. CN1O[C@@H](CO)Cn2nc3c(c2C1=O)CN(C(=O)Nc1ccc(F)c(Cl)c1)CC3
2. C[C@@H]1Cc2nn3c(c2CN1C(=O)Nc1ccc(F)c(Cl)c1)C(=O)N(C)O[C@@H](CN(C)C)C3
3. CON(C)C(=O)c1n[nH]c2c1CN(C(=O)Nc1cccc(Cl)c1)CC2
4. C[C@@H]1Cc2nn3c(c2CN1C(=O)Nc1ccc(F)c(C(F)(F)F)c1)C(=O)N(C)O[C@@H](CO)C3
5. CCN(OC)C(=O)c1n[nH]c2c1CN(C(=O)Nc1cccc(Cl)c1)CC2
6. CN(OC1CCC1)C(=O)c1n[nH]c2c1CN(C(=O)Nc1cccc(Cl)c1)CC2
7. C[C@@H]1Cc2nn3c(c2CN1C(=O)Nc1ccc(F)c(Cl)c1)C(=O)N(C)O[C@H](CO)C3

**A:**
1: 4; 2: 21; 3: 54; 4: 2.7; 5: 90; 6: 97; 7: 4
